- target under test: Cytochrome P450 1A2 (Homo sapiens, UniProt P05177)
- Sequence (P05177 whole entry): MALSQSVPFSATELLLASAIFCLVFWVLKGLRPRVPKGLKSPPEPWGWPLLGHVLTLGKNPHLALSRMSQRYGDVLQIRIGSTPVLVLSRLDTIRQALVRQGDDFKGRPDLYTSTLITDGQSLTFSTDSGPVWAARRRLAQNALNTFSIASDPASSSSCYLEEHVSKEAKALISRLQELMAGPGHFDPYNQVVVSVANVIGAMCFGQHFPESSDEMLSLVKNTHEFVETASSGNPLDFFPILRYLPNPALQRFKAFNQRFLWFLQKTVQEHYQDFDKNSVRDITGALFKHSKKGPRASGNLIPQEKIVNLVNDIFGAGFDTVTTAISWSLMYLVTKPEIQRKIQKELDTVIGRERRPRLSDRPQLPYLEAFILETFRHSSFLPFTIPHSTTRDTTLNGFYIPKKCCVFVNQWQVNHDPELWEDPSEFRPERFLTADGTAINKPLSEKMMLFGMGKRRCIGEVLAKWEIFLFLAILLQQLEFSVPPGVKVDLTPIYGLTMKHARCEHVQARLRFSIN
- experimental details: Inhibition of Cytochrome P450 1A2 enzyme in bacterial membrane expressing human P450s
assay readout: IC50

O=c1c2cc(Br)ccc2nc2n1CCc1c-2[nH]c2ccccc12; 1500 nM
COc1ccc2c3c([nH]c2c1)-c1nc2ccccc2c(=O)n1CC3; 1980 nM
COc1ccc2[nH]c3c(c2c1)CCn1c-3nc2ccccc2c1=O; 2920 nM
COc1ccc2c(=O)n3c(nc2c1OC)-c1[nH]c2ccccc2c1CC3; 29 nM

Which value of IC50 has been reported for COc1ccc2nc3n(c(=O)c2c1)CCc1c-3[nH]c2ccccc12 in the records?
280 nM

Which value of IC50 has been reported for O=c1c2ccccc2nc2n1CCc1c-2[nH]c2ccccc12 in the records?
22 nM

---

- target under test: UniProt:P05177
- experimental details: Inhibition of Cytochrome P450 1A2 enzyme in bacterial membrane expressing human P450s
pIC50: −log10 of the molar value.
Respond with 1 for pIC50 values of 7 and above, -1 for values below.

Below are worked cases with known answers.
CN1c2ccccc2C(=O)N2CCc3c([nH]c4ccccc34)[C@H]21; -1
COc1cccc2c(=O)n3c(nc12)-c1[nH]c2ccccc2c1CC3; 1
O=c1c2cc(Cl)ccc2nc2n1CCc1c-2[nH]c2ccccc12; 1

Now examine the next entry.
Answer whether pIC50 of O=c1c2ccc(Cl)cc2nc2n1CCc1c-2[nH]c2ccccc12 is greater than or equal to 7.
1

---

- target under test: Cytochrome P450 1A1 (Homo sapiens, UniProt P04798)
- experimental details: Inhibition of Cytochrome P450 1A1 enzyme in bacterial membrane expressing human P450s
assay readout: IC50 (nM)
The reply should be a number in nM, with the unit left off.

Use these answered entries as a reference point.
COc1ccc2[nH]c3c(c2c1)CCn1c-3nc2ccccc2c1=O; 1780
O=c1c2cc(Br)ccc2nc2n1CCc1c-2[nH]c2ccccc12; 2470
O=c1c2ccc(Cl)cc2nc2n1CCc1c-2[nH]c2ccccc12; 1200
CN1c2ccccc2C(=O)N2CCc3c([nH]c4ccccc34)[C@H]21; 24600

As a next step, examine the compound that follows.
Which value of IC50 has been reported for COc1ccc2c3c([nH]c2c1)-c1nc2ccccc2c(=O)n1CC3 in the records?
2000

---

- target under test: Cytochrome P450 1A2 (Homo sapiens, UniProt P05177)
- experimental details: Inhibition of Cytochrome P450 1A2 enzyme in bacterial membrane expressing human P450s
This listing pairs molecules with measured pIC50.
Entry type: numeric. Quantity: pIC50, the -log10 of concentration in molar units.

COc1ccc2nc3n(c(=O)c2c1OC)CCc1c-3[nH]c2ccccc12; 5.76
Oc1c2ccccc2nc2c3nc4ccccc4c-3ccn12; 7.52
C[n+]1c2n(c(=O)c3ccccc31)CCc1c-2[nH]c2ccccc12 [DEHYDROEVODIAMINE]; 5.25

Which value of pIC50 has been reported for COc1cc(OC)c2nc3n(c(=O)c2c1)CCc1c-3[nH]c2ccccc12 in the records?
7.39

---

This listing pairs compounds with measured IC50.
- target under test: Cytochrome P450 1A1 (Homo sapiens, UniProt P04798)
- Sequence (P04798 whole entry): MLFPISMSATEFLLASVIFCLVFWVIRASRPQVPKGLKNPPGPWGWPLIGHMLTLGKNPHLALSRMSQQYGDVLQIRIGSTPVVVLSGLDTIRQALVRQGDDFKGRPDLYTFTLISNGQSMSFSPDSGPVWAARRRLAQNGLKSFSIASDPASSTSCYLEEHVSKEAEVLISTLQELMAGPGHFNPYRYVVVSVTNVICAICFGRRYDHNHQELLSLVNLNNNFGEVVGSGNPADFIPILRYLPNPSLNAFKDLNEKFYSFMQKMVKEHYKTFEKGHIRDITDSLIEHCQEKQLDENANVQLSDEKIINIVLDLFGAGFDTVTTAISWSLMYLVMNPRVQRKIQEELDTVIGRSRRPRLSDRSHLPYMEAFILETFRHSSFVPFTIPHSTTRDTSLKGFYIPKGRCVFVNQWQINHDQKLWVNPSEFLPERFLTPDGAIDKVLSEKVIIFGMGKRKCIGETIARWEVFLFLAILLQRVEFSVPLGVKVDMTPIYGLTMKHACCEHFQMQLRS
- experimental details: Inhibition of Cytochrome P450 1A1 enzyme in bacterial membrane expressing human P450s
The reply should be a number in µM, with the unit left off.

COc1ccc2c(=O)n3c(nc2c1OC)-c1[nH]c2ccccc2c1CC3; 0.97

Which value of IC50 has been reported for COc1ccc2nc3n(c(=O)c2c1OC)CCc1c-3[nH]c2ccccc12 in the records?
0.87

Which value of IC50 has been reported for COc1cccc2c(=O)n3c(nc12)-c1[nH]c2ccccc2c1CC3 in the records?
0.45

Which value of IC50 has been reported for COc1cc2nc3n(c(=O)c2cc1OC)CCc1c-3[nH]c2ccccc12 in the records?
1.58

Which value of IC50 has been reported for O=c1c2ccccc2nc2n1CCc1c-2[nH]c2ccccc12 in the records?
0.26

Which value of IC50 has been reported for COc1ccc2nc3n(c(=O)c2c1)CCc1c-3[nH]c2ccccc12 in the records?
1.28

Which value of IC50 has been reported for COc1ccc2c(=O)n3c(nc2c1)-c1[nH]c2ccccc2c1CC3 in the records?
0.85

Which value of IC50 has been reported for COc1cc(OC)c2nc3n(c(=O)c2c1)CCc1c-3[nH]c2ccccc12 in the records?
0.42

Which value of IC50 has been reported for O=c1c2cc(Cl)ccc2nc2n1CCc1c-2[nH]c2ccccc12 in the records?
1.92

Which value of IC50 has been reported for C[n+]1c2n(c(=O)c3ccccc31)CCc1c-2[nH]c2ccccc12 [DEHYDROEVODIAMINE] in the records?
18

---

This listing pairs compounds with measured pIC50.
- target under test: UniProtKB Q16678
- Sequence (Q16678 whole entry): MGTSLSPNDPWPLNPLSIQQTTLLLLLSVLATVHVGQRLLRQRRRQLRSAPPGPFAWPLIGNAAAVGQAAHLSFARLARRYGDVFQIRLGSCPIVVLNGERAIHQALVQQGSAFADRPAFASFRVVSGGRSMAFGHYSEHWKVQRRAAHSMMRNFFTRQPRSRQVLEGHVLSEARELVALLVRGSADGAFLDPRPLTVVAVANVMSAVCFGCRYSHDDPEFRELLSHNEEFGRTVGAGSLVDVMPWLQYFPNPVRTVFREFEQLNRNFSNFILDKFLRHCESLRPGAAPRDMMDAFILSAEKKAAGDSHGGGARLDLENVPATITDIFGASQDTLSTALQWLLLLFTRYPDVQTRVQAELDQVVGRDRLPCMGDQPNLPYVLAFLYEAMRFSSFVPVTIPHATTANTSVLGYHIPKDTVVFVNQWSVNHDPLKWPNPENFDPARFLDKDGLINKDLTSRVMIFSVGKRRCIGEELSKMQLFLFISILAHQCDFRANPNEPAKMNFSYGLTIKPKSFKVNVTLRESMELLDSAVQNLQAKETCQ
- experimental details: Inhibition of Cytochrome P450 1B1 enzyme in bacterial membrane expressing human P450s
- Assay type: ADME, cell membranes
Entry type: numeric. Quantity: pIC50, the -log10 of concentration in molar units.

Use these answered entries as a reference point.
O=c1c2ccccc2nc2n1CCc1c-2[nH]c2ccccc12; 7.26
COc1cccc2c(=O)n3c(nc12)-c1[nH]c2ccccc2c1CC3; 7.15
COc1cc(OC)c2nc3n(c(=O)c2c1)CCc1c-3[nH]c2ccccc12; 7.10
O=c1c2cc(Br)ccc2nc2n1CCc1c-2[nH]c2ccccc12; 6.92
O=c1c2ccc(Cl)cc2nc2n1CCc1c-2[nH]c2ccccc12; 7.43
COc1ccc2nc3n(c(=O)c2c1OC)CCc1c-3[nH]c2ccccc12; 6.85

Which value of pIC50 has been reported for COc1cc2nc3n(c(=O)c2cc1OC)CCc1c-3[nH]c2ccccc12 in the records?
6.80

Which value of pIC50 has been reported for COc1ccc2c(=O)n3c(nc2c1OC)-c1[nH]c2ccccc2c1CC3 in the records?
5.62

Which value of pIC50 has been reported for COc1ccc2c(=O)n3c(nc2c1)-c1[nH]c2ccccc2c1CC3 in the records?
6.77

Which value of pIC50 has been reported for O=c1c2cc(Cl)ccc2nc2n1CCc1c-2[nH]c2ccccc12 in the records?
7.05

Which value of pIC50 has been reported for C[n+]1c2n(c(=O)c3ccccc31)CCc1c-2[nH]c2ccccc12 [DEHYDROEVODIAMINE] in the records?
6.48

Which value of pIC50 has been reported for CN1c2ccccc2C(=O)N2CCc3c([nH]c4ccccc34)[C@H]21 in the records?
6.16

Which value of pIC50 has been reported for COc1ccc2nc3n(c(=O)c2c1)CCc1c-3[nH]c2ccccc12 in the records?
6.85

Which value of pIC50 has been reported for COc1ccc2c3c([nH]c2c1)-c1nc2ccccc2c(=O)n1CC3 in the records?
6.96
